Hello, the source for this data is patent US20240270821A1, in case you need it.

// pEC50 lookup, one value per entry
- Target desc: hGIPR (Homo sapiens, UniProt P48546)
- Sequence (P48546 22-466): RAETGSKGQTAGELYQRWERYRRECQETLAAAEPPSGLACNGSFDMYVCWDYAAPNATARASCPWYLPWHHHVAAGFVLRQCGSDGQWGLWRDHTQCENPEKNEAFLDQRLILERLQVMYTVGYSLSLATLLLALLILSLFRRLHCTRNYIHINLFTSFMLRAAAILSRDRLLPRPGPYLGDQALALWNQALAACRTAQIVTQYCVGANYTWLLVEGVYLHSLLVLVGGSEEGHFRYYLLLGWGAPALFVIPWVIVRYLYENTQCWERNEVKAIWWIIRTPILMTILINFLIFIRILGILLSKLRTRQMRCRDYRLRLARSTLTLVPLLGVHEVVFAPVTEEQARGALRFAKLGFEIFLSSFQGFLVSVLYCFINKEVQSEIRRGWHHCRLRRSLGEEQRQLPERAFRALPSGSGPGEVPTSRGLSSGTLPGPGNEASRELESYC
- Test description: Functional cAMP activation in the presence of 0.1% casein (no HSA);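 note: intracellular cAMP rise after 30 min at 37 °C read by HTRF against a standard curve, scaled between buffer alone (0%) and top control ligand concentration (100%), four-parameter fit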
- Type: cell-based
- Settings: read-out: Relative cAMP EC50, hGIPR
Starred links: 1 amine or outer side, 2 acyl side, 3 side chain; linkers in the order of their positions; H or OH if unused. Non-standard residues stand in square brackets, D forms with d. Groups on a side chain read outwards from the residue. *: point of attachment. C18 diacid = O=C(O)CCCCCCCCCCCCCCCCC(=O)*; αMePhe(2-F) = C[C@](N)(Cc1ccccc1F)C(=O)O; γGlu = O=C(O)[C@H](CCC(=O)[*:2])N[*:1]; αMe4Pal = C[C@](N)(Cc1ccncc1)C(=O)O; αMeY = C[C@](N)(Cc1ccc(O)cc1)C(=O)O; 4Pal = N[C@@H](Cc1ccncc1)C(=O)O; αMeL = CC(C)C[C@](C)(N)C(=O)O; αMeS = C[C@](N)(CO)C(=O)O; Orn = NCCC[C@H](N)C(=O)O; AEEA = NCCOCCOCC(=O)O; Aib = CC(C)(N)C(=O)O
Conceptually, pEC50 converts a concentration in mol/L into minus its log10.

H-Y[Aib]QGT[αMePhe(2-F)]TSD[4Pal]SI[αMeL]LD[Orn]K([AEEA-γGlu-C18 diacid])AQ[αMe4Pal][Orn]FI[dE][αMeY]LIEGGPSSGAPPPESEE-NH2 [Example 756]: 11.02
H-Y[Aib]QGT[αMePhe(2-F)]TSD[4Pal][αMeS]I[αMeL]LD[Orn]K([AEEA-γGlu-C18 diacid])AA[Aib]EFI[dE][αMeY]LIEGGPSSGAPPPSGQ-OH [Example 722]: 11.00

# context switch: different substance, same pEC50
**Query** Any idea what pEC50 was measured for H-Y[Aib]QGTFTSDFS[Orn][αMeL]LDKK([γGlu-γGlu-C18 diacid])AQ[Aib]AFIEYLLEGGPSSG[Aib]PPPGGS-NH2 [Example 771] ?
**Result** 9.63

---

- Target desc: hGLP-1R (Homo sapiens, UniProt P43220)
- Sequence (P43220 24-463): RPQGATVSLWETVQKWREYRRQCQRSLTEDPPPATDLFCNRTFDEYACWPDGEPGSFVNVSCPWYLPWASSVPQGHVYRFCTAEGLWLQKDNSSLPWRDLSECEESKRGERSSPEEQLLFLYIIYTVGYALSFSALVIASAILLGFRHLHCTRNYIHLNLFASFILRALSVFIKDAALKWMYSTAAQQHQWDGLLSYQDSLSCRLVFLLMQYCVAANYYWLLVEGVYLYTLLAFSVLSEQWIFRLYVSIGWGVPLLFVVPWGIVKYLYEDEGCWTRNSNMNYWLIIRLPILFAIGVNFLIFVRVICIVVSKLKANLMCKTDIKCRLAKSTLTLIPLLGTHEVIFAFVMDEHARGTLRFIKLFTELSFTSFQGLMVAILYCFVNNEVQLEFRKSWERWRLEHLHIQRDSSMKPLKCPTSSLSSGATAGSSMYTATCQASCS
- Test description: Functional cAMP activation in the presence of 0.1% casein (no HSA);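 note: intracellular cAMP rise after 30 min at 37 °C read by HTRF, normalized between buffer only (0%) and maximal control ligand (100%), four-parameter variable-slope fit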
- Assay type: cell-based
- Settings: in the presence of 0.1% casein (no HSA); geometric mean; read-out: Relative cAMP EC50, hGLP-1R
Starred links: 1 amine or outer side, 2 acyl side, 3 side chain; linkers in the order of their positions; H or OH if unused. Non-standard residues stand in square brackets, D forms with d. Groups on a side chain read outwards from the residue. No end group written: not given here. *: point of attachment. C20 diacid = O=C(O)CCCCCCCCCCCCCCCCCCC(=O)*; C18 diacid = O=C(O)CCCCCCCCCCCCCCCCC(=O)*; αMePhe(2-F) = C[C@](N)(Cc1ccccc1F)C(=O)O; γGlu = O=C(O)[C@H](CCC(=O)[*:2])N[*:1]; αMe4Pal = C[C@](N)(Cc1ccncc1)C(=O)O; αMeY = C[C@](N)(Cc1ccc(O)cc1)C(=O)O; αMeF = C[C@](N)(Cc1ccccc1)C(=O)O; 4Pal = N[C@@H](Cc1ccncc1)C(=O)O; αMeL = CC(C)C[C@](C)(N)C(=O)O; αMeS = C[C@](N)(CO)C(=O)O; Orn = NCCC[C@H](N)C(=O)O; AEEA = NCCOCCOCC(=O)O; Aib = CC(C)(N)C(=O)O
Metric name: EC50 (nM)
Dear colleague, please return just the value in nM, with no unit written.

Y[Aib]QGT[αMeF]TSD[4Pal][αMeS]I[αMeL]LD[Orn]K([AEEA-γGlu-C18 diacid])AQ[αMe4Pal]EFI[dE][αMeY]LIEGGPSSGEPPPSGGGE-NH2 [Example 1169]: 0.613
H-Y[Aib]QGT[αMePhe(2-F)]TSD[4Pal]SILLDKQAQK([AEEA-AEEA-γGlu-C20 diacid])AFIEYLLEGGPSSGEPPPSEG-NH2 [Example 347]: 0.798
H-Y[Aib]QGTFTSDFSK[αMeL]LDKK([AEEA-γGlu-C20 diacid])AQ[Aib]AFIEYLLEGGPSSGEPPPEEG-NH2 [Example 35]: 3.05
H-Y[Aib]QGT[αMeF]TSD[4Pal][αMeS]I[αMeL]LD[Orn]K([AEEA-γGlu-C18 diacid])AQ[αMe4Pal]EFI[dE][αMeY]LIEGGPSSGAPPPSGE-NH2 [Example 1164]: 0.495
H-Y[Aib]QGTFTSD[4Pal]S[Orn][αMeL]LD[Orn]K([γGlu-γGlu-C18 diacid])AQ[αMe4Pal]QFIEYLIAGGPSSGAPPPSGSEE-NH2 [Example 1000]: 3.55

**Query** Any idea what EC50 was measured for H-Y[Aib]QGT[αMePhe(2-F)]TSDYSKLLDKIAQK([AEEA-γGlu-C20 diacid])[Orn]FIEWLIEGGPSSGEPPPSEG-NH2 [Example 310] ?
**Result** 0.586

**Query** Any idea what EC50 was measured for H-Y[Aib]QGTFTSDFS[Orn][αMeL]LDKK([AEEA-γGlu-C18 diacid])AQ[αMe4Pal]AFIEYLIE[Aib]GESSGAPPPSGE-NH2 [Example 228] ?
**Result** 1.52
